# SYSTEM: human PDE41 Dcatalytic domain (UniProt no. Q08499 [S380-L740]) (Homo sapiens (Human), UniProt Q08499)
# Sequence (Q08499 380-740): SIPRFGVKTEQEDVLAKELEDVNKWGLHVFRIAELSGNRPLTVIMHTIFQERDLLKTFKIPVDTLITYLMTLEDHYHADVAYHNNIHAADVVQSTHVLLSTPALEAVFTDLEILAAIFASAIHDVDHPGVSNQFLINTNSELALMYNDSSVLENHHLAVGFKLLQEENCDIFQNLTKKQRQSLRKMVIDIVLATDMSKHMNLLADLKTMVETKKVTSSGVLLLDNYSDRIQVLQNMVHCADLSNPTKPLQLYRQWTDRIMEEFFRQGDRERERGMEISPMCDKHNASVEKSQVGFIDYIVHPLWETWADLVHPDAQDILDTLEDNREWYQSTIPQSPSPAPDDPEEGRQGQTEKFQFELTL
# ASSAY_SUMMARY: PDE4 Assay (TR-FRET, FAM-cAMP cleavage)
# PARTICULARS: human PDE4D catalytic domain, cAMP / FAM-cAMP substrate, read-out: PDE4 IC50 range
pIC50: −log10 of the molar value.

# COMPOUND, pIC50
measured = [
    ("CN(CCC1CCOCC1)c1nc2c(c(NC3CCCCC3)n1)[S+]([O-])CC2 (stereo not shown)", "> 8.00"),
    ("CN(CCC1CCOCC1)c1nc2c(c(NC3(C)CC3)n1)[S+]([O-])CC2 (stereo not shown)", "7.30 to 8.00"),
    ("CC[C@H](C)Nc1nc(N(C)CCC2CCOCC2)nc2c1[S+]([O-])CC2 (stereo partly shown)", "7.30 to 8.00"),
    ("CN(CCC1CCOCC1)c1nc2c(c(NC3(C#N)CC3)n1)[S+]([O-])CC2 (stereo not shown)", "7.30 to 8.00"),
]

====

Measured pIC50 values are reported for all entries that follow.
# SYSTEM: human PDE41 Dcatalytic domain (UniProt no. Q08499 [S380-L740]) (Homo sapiens (Human), UniProt Q08499)
# ASSAY_SUMMARY: PDE4 Assay (TR-FRET, FAM-cAMP cleavage)
# PARTICULARS: human PDE4D catalytic domain, cAMP / FAM-cAMP substrate, read-out: PDE4 IC50 range
pIC50: −log10 of the molar value.

# MOLECULE, pIC50
rows = [
    ("CN(CCC1CCOCC1)c1nc2c(c(NC3(C#N)CCC3)n1)[S+]([O-])CC2 (centres unmarked)", "7.30 to 8.00"),
    ("CN(CCC1CCOCC1)c1nc2c(c(NC3CC4(COC4)C3)n1)[S+]([O-])CC2 (centres unmarked)", "7.30 to 8.00"),
    ("CC(C)CNc1nc(N(C)CCC2CCOCC2)nc2c1[S+]([O-])CC2 (centres unmarked)", "7.30 to 8.00"),
    ("CN(CCC1CCOCC1)c1nc2c(c(NC3CCC3)n1)[S+]([O-])CC2 (centres unmarked)", "7.30 to 8.00"),
    ("COc1cccc(Nc2nc(N(C)CCC3CCOCC3)nc3c2[S+]([O-])CC3)c1 (centres unmarked)", "> 8.00"),
    ("CN(CCC1CCOCC1)c1nc2c(c(NC(C)(C)C)n1)[S+]([O-])CC2 (centres unmarked)", "7.30 to 8.00"),
    ("CC(C)Nc1nc(N(C)CCC2CCOCC2)nc2c1[S+]([O-])CC2 (centres unmarked)", "7.30 to 8.00"),
    ("CC[C@@H](C)Nc1nc(N(C)CCC2CCOCC2)nc2c1[S+]([O-])CC2 (some centres unmarked)", "7.30 to 8.00"),
    ("CN(CCC1CCOCC1)c1nc2c(c(NC3COC3)n1)[S+]([O-])CC2 (centres unmarked)", "< 7.00"),
    ("CN(CCC1CCOCC1)c1nc2c(c(NC3(CO)CCCC3)n1)[S+]([O-])CC2 (centres unmarked)", "< 7.00"),
    ("CN(CCC1CCOCC1)c1nc2c(c(NC3CCOCC3)n1)[S+]([O-])CC2 (stereo in doubt)", "7.30 to 8.00"),
    ("CCCCNc1nc(N(C)CCC2CCOCC2)nc2c1[S+]([O-])CC2 (centres unmarked)", "7.30 to 8.00"),
    ("CCCNc1nc(N(C)CCC2CCOCC2)nc2c1[S+]([O-])CC2 (centres unmarked)", "7.00 to 7.30"),
    ("CN(CCC1CCOCC1)c1nc2c(c(NC3(CO)CC3)n1)[S+]([O-])CC2 (centres unmarked)", "< 7.00"),
    ("CCNc1nc(N(C)CCC2CCOCC2)nc2c1[S+]([O-])CC2 (centres unmarked)", "< 7.00"),
    ("CN(CCC1CCOCC1)c1nc2c(c(NC(C)(C)CO)n1)[S+]([O-])CC2 (centres unmarked)", "< 7.00"),
    ("CN(CCC1CCOCC1)c1nc2c(c(NC3(CO)CCC3)n1)[S+]([O-])CC2 (centres unmarked)", "< 7.00"),
]
